# ASSAY_DETAILS: Selectivity ratio, HC50 for hemolytic activity in rabbit RBC to MIC for antibacterial activity against methicillin-resistant Staphylococcus aureus N315
# Assay type: toxicity
# RUN_PARAMETERS: rabbit red blood cells

| SMI | selectivity ratio |
| --- | --- |
| COc1cc(CNC(=O)CCCC/C=C/C(C)C)ccc1OCCCCCCNC(=N)N | > 32 |
| CCCCCCCCC(=O)NCc1ccc(OCCCCCCCCNC(=N)N)c(OC)c1 | > 128 |
| CCCCCCCCC(=O)NCc1ccc(OCCNC(=N)N)c(OC)c1 | > 4 |
| COc1cc(CNC(=O)CCCC/C=C/C(C)C)ccc1OCCCCNC(=N)N | > 32 |
| CCCCCCCCC(=O)NCc1ccc(OCCCCCCNCCN(CCN)CCN)c(OC)c1 | > 64 |
| CCCCCCCCC(=O)NCc1ccc(OCCCCCCNC(=N)N)c(OCCCCCCNC(=N)N)c1 | 173 |
| CCCCCCCCC(=O)NCc1ccc(OCC(=O)N[C@@H](CCCNC(=N)N)C(=O)OC)c(OC)c1 | > 4 |
| CCCCCCCCC(=O)NCc1ccc(OCCCCNC(=N)N)c(OCCCCNC(=N)N)c1 | > 32 |
| CCCCCCCCC(=O)NCc1ccc(OCCCCNC(=N)N)c(OC)c1 | > 16 |
| CCCCCCCCC(=O)NCc1ccc(OCCCCCCNC(=N)N)c(OC)c1 | > 64 |
| CCCCCCCCC(=O)NCc1ccc(OCCCCCCNCCN(CCNC(=N)N)CCNC(=N)N)c(OCCCCCCNCCN(CCNC(=N)N)CCNC(=N)N)c1 | > 128 |
| CCCCCCCCC(=O)NCc1ccc(OCCCCCNC(=N)N)c(OC)c1 | > 32 |
| COc1cc(CNC(=O)CCCC/C=C/C(C)C)ccc1OCCCCCCNCCN(CCNC(=N)N)CCNC(=N)N | > 32 |
| CCCCCCCCC(=O)NCc1ccc(OCCCCCCCCCCNC(=N)N)c(OC)c1 | > 32 |
| CCCCCCCCC(=O)NCc1ccc(OCCCNC(=N)N)c(OC)c1 | > 8 |

====

# ASSAY_DETAILS: Selectivity ratio, HC50 for hemolytic activity in rabbit RBC to MIC for antibacterial activity against Acinetobacter baumannii R2889
# Type: toxicity
# RUN_PARAMETERS: rabbit red blood cells

| SMI | selectivity ratio |
| --- | --- |
| CCCCCCCCC(=O)NCc1ccc(OCCCCCCNC(=N)N)c(OCCCCCCNC(=N)N)c1 | 21.6 |

====

# ASSAY_DETAILS: Selectivity ratio, HC50 for hemolytic activity in rabbit RBC to MIC for antibacterial activity against Staphylococcus aureus ATCC 29213
# Assay type: toxicity
# RUN_PARAMETERS: rabbit red blood cells
Quick reference for selectivity ratio among some compounds

| SMI | selectivity ratio |
| --- | --- |
| CCCCCCCCC(=O)NCc1ccc(OCCCCCCNCCN(CCNC(=N)N)CCNC(=N)N)c(OCCCCCCNCCN(CCNC(=N)N)CCNC(=N)N)c1 | > 128 |
| COc1cc(CNC(=O)CCCC/C=C/C(C)C)ccc1OCCCCCCNCCN(CCNC(=N)N)CCNC(=N)N | > 32 |
| CCCCCCCCC(=O)NCc1ccc(OCCCCCCNC(=N)N)c(OCCCCCCNC(=N)N)c1 | 173 |
| CCCCCCCCC(=O)NCc1ccc(OCCCNC(=N)N)c(OC)c1 | > 8 |
| CCCCCCCCC(=O)NCc1ccc(OCCCCNC(=N)N)c(OC)c1 | > 16 |
| CCCCCCCCC(=O)NCc1ccc(OCCCCCCCCCCNC(=N)N)c(OC)c1 | > 32 |
| COc1cc(CNC(=O)CCCC/C=C/C(C)C)ccc1OCCCCNC(=N)N | > 32 |
| CCCCCCCCC(=O)NCc1ccc(OCCCCCCNC(=N)N)c(OC)c1 | > 64 |
| CCCCCCCCC(=O)NCc1ccc(OCCCCNC(=N)N)c(OCCCCNC(=N)N)c1 | > 32 |
| COc1cc(CNC(=O)CCCC/C=C/C(C)C)ccc1OCCCCCCNC(=N)N | > 32 |

====

Listing of recorded selectivity ratio by entry.
# ASSAY_DETAILS: Selectivity ratio, HC50 for hemolytic activity in rabbit RBC to MIC for antibacterial activity against Staphylococcus aureus ATCC 29213
# Type: toxicity
# RUN_PARAMETERS: rabbit red blood cells

| SMI | selectivity ratio |
| --- | --- |
| CCCCCCCCC(=O)NCc1ccc(OCCCCCCCCNC(=N)N)c(OC)c1 | > 128 |
| CCCCCCCCC(=O)NCc1ccc(OCCCCCCNCCN(CCN)CCN)c(OC)c1 | > 64 |
| CCCCCCCCC(=O)NCc1ccc(OCCNC(=N)N)c(OC)c1 | > 4 |
| CCCCCCCCC(=O)NCc1ccc(OCCCCCNC(=N)N)c(OC)c1 | > 32 |
| CCCCCCCCC(=O)NCc1ccc(OCC(=O)N[C@@H](CCCNC(=N)N)C(=O)OC)c(OC)c1 | > 4 |

====

# ASSAY_DETAILS: Selectivity ratio, HC50 for hemolytic activity in rabbit RBC to MIC for antibacterial activity against Acinetobacter baumannii ATCC 17978
# Type: toxicity
# RUN_PARAMETERS: rabbit red blood cells

| SMI | selectivity ratio |
| --- | --- |
| CCCCCCCCC(=O)NCc1ccc(OCCCCCCNC(=N)N)c(OCCCCCCNC(=N)N)c1 | 21.6 |

====

# Tested on: Escherichia coli
# ASSAY_DETAILS: Antibacterial activity against Escherichia coli ATCC 25922 assessed as inhibition of visible growth measured after 18 to 24 hrs by broth dilution method
# Type: functional
# RUN_PARAMETERS: time 18-24 hrs
VALUE_KIND: MIC

| SMI | OBSERVED_VALUE |
| --- | --- |
| CCCCCCCCC(=O)NCc1ccc(OCC(=O)N[C@@H](CCCNC(=N)N)C(=O)N[C@@H](CCCNC(=N)N)C(=O)N[C@@H](CCCNC(=N)N)C(=O)OC)c(OC)c1 | > 50 µg/mL |
| CCCCCCCCC(=O)NCc1ccc(OCCCCCNC(=N)N)c(OC)c1 | 50 µg/mL |
| CCCCCCCCC(=O)NCc1ccc(OCCCCN(CCCN(C)C)CCCN(C)C)c(OC)c1 | > 50 µg/mL |
| CCCCCCCCC(=O)NCc1ccc(OCCNC(=N)N)c(OC)c1 | > 50 µg/mL |
| CN[C@H](CC(C)C)C(=O)N[C@H]1C(=O)N[C@@H](CC(N)=O)C(=O)N[C@H]2C(=O)N[C@H]3C(=O)N[C@H](C(=O)N[C@H](C(=O)O)c4cc(O)cc(O)c4-c4cc3ccc4O)[C@H](O)c3ccc(c(Cl)c3)Oc3cc2cc(c3O[C@@H]2O[C@H](CO)[C@@H](O)[C@H](O)[C@H]2O[C@H]2C[C@](C)(N)[C@H](O)[C@H](C)O2)Oc2ccc(cc2Cl)[C@H]1O | > 50 µg/mL |
| COc1cc(CNC(=O)CCCC/C=C/C(C)C)ccc1OCCCCCCNC(=N)N | > 50 µg/mL |
| CCN(CC)CCCCOc1ccc(CNC(=O)CCCC/C=C/C(C)C)cc1OC | > 50 µg/mL |
| CCCCCCCCC(=O)NCc1ccc(OCCCCN(CC)CC)c(OC)c1 | > 50 µg/mL |
| CCCCCCCCC(=O)NCc1ccc(OCCCNC(=N)N)c(OC)c1 | > 50 µg/mL |
| CCCCCCCCC(=O)NCc1ccc(OCC(=O)N[C@@H](CCCNC(=N)N)C(=O)OC)c(OC)c1 | > 50 µg/mL |
| COc1cc(CNC(=O)CCCC/C=C/C(C)C)ccc1OCCCCCCNCCN(CCNC(=N)N)CCNC(=N)N | 50 µg/mL |

====

# ASSAY_DETAILS: Selectivity ratio, HC50 for hemolytic activity in rabbit RBC to MIC for antibacterial activity against methicillin-resistant Staphylococcus aureus NCTC 10442
# Type: toxicity
# RUN_PARAMETERS: rabbit red blood cells
This section presents molecules with their documented selectivity ratio values.
VALUE_KIND: selectivity ratio

| SMI | VALUE_KIND | OBSERVED_VALUE |
| --- | --- | --- |
| COc1cc(CNC(=O)CCCC/C=C/C(C)C)ccc1OCCCCCCNCCN(CCNC(=N)N)CCNC(=N)N | selectivity ratio | > 32 |
| CCCCCCCCC(=O)NCc1ccc(OCCCCCCNCCN(CCN)CCN)c(OC)c1 | selectivity ratio | > 64 |
| CCCCCCCCC(=O)NCc1ccc(OCCNC(=N)N)c(OC)c1 | selectivity ratio | > 4 |
| CCCCCCCCC(=O)NCc1ccc(OCCCCCNC(=N)N)c(OC)c1 | selectivity ratio | > 32 |
| CCCCCCCCC(=O)NCc1ccc(OCC(=O)N[C@@H](CCCNC(=N)N)C(=O)OC)c(OC)c1 | selectivity ratio | > 4 |
